protocol_text: In vivo pharmacological action in the anaesthetized dog (cardiac frequency, systemic arterial pressure, cardiac contractibility)
measurement_setup: Table II, first sign, parameter name is in the drawing [drawing 9], intravenous

compound: CC(C)(Cc1c[nH]c2ccccc12)NCC(O)COc1cccc2[nH]c(CO)cc12 (stereo not drawn)
direct effect: .dwnarw.
//
compound: CC(C)(Cc1c[nH]c2ccccc12)NCC(O)COc1cccc2[nH]c(C(=O)O)cc12 (stereo not drawn) [SR41828A]
direct effect: = or .dwnarw.
//
compound: CCOC(=O)c1cc2c(OCC(O)CNC(C)(C)Cc3c[nH]c4ccc(OC)cc34)cccc2[nH]1 (stereo not drawn)
direct effect: .dwnarw.
//
compound: CCOC(=O)c1cc2c(OCC(O)CNC(C)(CO)Cc3c[nH]c4ccccc34)cccc2[nH]1 (stereo not drawn)
direct effect: .dwnarw.
//
compound: CCOC(=O)c1cc2c(OCC(O)CNC(C)Cc3c[nH]c4ccccc34)cccc2[nH]1 (racemic) [SR41294A]
direct effect: .dwnarw.
//
compound: CC(C)(Cc1c[nH]c2ccccc12)NCC(O)COc1cccc2[nH]c(C#N)cc12 (stereo not drawn) [SR41370A]
direct effect: weak .dwnarw.
//
compound: CCOC(=O)c1cc2c(OCC(O)CNC(C)(C)Cc3c[nH]c4ccccc34)cccc2[nH]1 (stereo not drawn)
direct effect: = or .dwnarw.
//
compound: CCOC(=O)c1cc2c(OCC(O)CNC(C)(C)Cc3c[nH]c4ccc(C#N)cc34)cccc2[nH]1 (stereo not drawn) [SR41831A]
direct effect: .dwnarw.
//
compound: CC(C)(Cc1c[nH]c2ccccc12)NCC(O)COc1cccc2[nH]c(C(N)=O)cc12 (stereo not drawn)
direct effect: weak .dwnarw.
